Here the recorded biofilm OD600 is given for each entry.
Test system: Candida albicans SNY425 biofilm
protocol.notes: biofilm OD600 with compound plus antifungal (OD600 (absorbance)); higher = more biofilm remaining
reported.conditions: assay detail: disruption of 24-h mature biofilm (compound + antifungal for a second 24 h)
property.measured: biofilm OD600

{"columns": ["compound", "numeric.readout"],
 "data": [
  ["Cc1c(O)cccc1C(=O)N[C@@H](CSc1ccccc1)[C@H](O)CN1C[C@H]2CCCC[C@H]2C[C@H]1C(=O)NC(C)(C)C [nelfinavir] + C[C@@H]1[C@H](O)[C@@H](C)/C=C/C=C/C=C/C=C/C=C/C=C/C=C/[C@H](O[C@@H]2O[C@H](C)[C@@H](O)[C@H](N)[C@@H]2O)C[C@@H]2O[C@](O)(C[C@@H](O)C[C@@H](O)[C@H](O)CC[C@@H](O)C[C@@H](O)CC(=O)O[C@H]1C)C[C@H](O)[C@H]2C(=O)O [amphotericin B] (first compound 12.5 µM)", 0.237],
  ["CSCCC(C=O)NC(=O)C(CC(C)C)NC(=O)[C@H](CC(C)C)NC(C)=O (some centres undefined) [Calpain Inhibitor II (ALLM)] + CC[C@H](C)C[C@H](C)CCCCCCCCC(=O)N[C@H]1C[C@@H](O)[C@@H](NCCN)NC(=O)[C@@H]2[C@@H](O)CCN2C(=O)[C@H]([C@H](O)CCN)NC(=O)[C@H]([C@H](O)[C@@H](O)c2ccc(O)cc2)NC(=O)[C@@H]2C[C@@H](O)CN2C(=O)[C@H]([C@@H](C)O)NC1=O [caspofungin] (first compound 12.5 µM)", 0.249],
  ["CC(C)C[C@H](NP(=O)(O)O[C@@H]1O[C@@H](C)[C@H](O)[C@@H](O)[C@H]1O)C(=O)N[C@@H](Cc1c[nH]c2ccccc12)C(=O)O [Phosphoramidon] + CC[C@H](C)C[C@H](C)CCCCCCCCC(=O)N[C@H]1C[C@@H](O)[C@@H](NCCN)NC(=O)[C@@H]2[C@@H](O)CCN2C(=O)[C@H]([C@H](O)CCN)NC(=O)[C@H]([C@H](O)[C@@H](O)c2ccc(O)cc2)NC(=O)[C@@H]2C[C@@H](O)CN2C(=O)[C@H]([C@@H](C)O)NC1=O [caspofungin] (first compound 12.5 µM)", 0.273],
  ["O=C(O)CNC(=O)C(CS)Cc1ccccc1 (racemic) [DL-Thiorphan] + OC(Cn1cncn1)(Cn1cncn1)c1ccc(F)cc1F [fluconazole] (first compound 12.5 µM)", 0.262]
]}

----------
Test system: Candida albicans SNY425 biofilm
protocol.notes: biofilm OD600 with compound plus antifungal (OD600 (absorbance)); higher = more biofilm remaining
reported.conditions: assay detail: sustained inhibition (compound + antifungal during 90-min adherence and 24-h growth)

{"columns": ["compound", "system.tested", "biofilm OD600"],
 "data": [
  ["NC(=O)c1cccc(-c2cccc(OC(=O)NC3CCCCC3)c2)c1 + C[C@@H]1[C@H](O)[C@@H](C)/C=C/C=C/C=C/C=C/C=C/C=C/C=C/[C@H](O[C@@H]2O[C@H](C)[C@@H](O)[C@H](N)[C@@H]2O)C[C@@H]2O[C@](O)(C[C@@H](O)C[C@@H](O)[C@H](O)CC[C@@H](O)C[C@@H](O)CC(=O)O[C@H]1C)C[C@H](O)[C@H]2C(=O)O [amphotericin B] (first compound 12.5 µM)", "Candida albicans SNY425 biofilm", 0.178],
  ["NCC1CCC(C(=O)N[C@@H](Cc2ccccc2)C(=O)Nc2ccc(CC(=O)O)cc2)CC1 (some centres not stated) + OC(Cn1cncn1)(Cn1cncn1)c1ccc(F)cc1F [fluconazole] (first compound 12.5 µM)", "Candida albicans SNY425 biofilm", 0.13],
  ["CC(C)C[C@@H](C=O)NC(=O)[C@H](CC(C)C)NC(=O)[C@H](CC(C)C)NC(=O)OCc1ccccc1 + CC[C@H](C)C[C@H](C)CCCCCCCCC(=O)N[C@H]1C[C@@H](O)[C@@H](NCCN)NC(=O)[C@@H]2[C@@H](O)CCN2C(=O)[C@H]([C@H](O)CCN)NC(=O)[C@H]([C@H](O)[C@@H](O)c2ccc(O)cc2)NC(=O)[C@@H]2C[C@@H](O)CN2C(=O)[C@H]([C@@H](C)O)NC1=O [caspofungin] (first compound 12.5 µM)", "Candida albicans SNY425 biofilm", 0.193],
  ["CCC(C)[C@H](NS(=O)(=O)c1cccc2ccccc12)C(=O)N[C@H](C=O)Cc1c[nH]c2ccccc12 (some centres not stated) + CC[C@H](C)C[C@H](C)CCCCCCCCC(=O)N[C@H]1C[C@@H](O)[C@@H](NCCN)NC(=O)[C@@H]2[C@@H](O)CCN2C(=O)[C@H]([C@H](O)CCN)NC(=O)[C@H]([C@H](O)[C@@H](O)c2ccc(O)cc2)NC(=O)[C@@H]2C[C@@H](O)CN2C(=O)[C@H]([C@@H](C)O)NC1=O [caspofungin] (first compound 12.5 µM)", "Candida albicans SNY425 biofilm", 0.18],
  ["CSCCC(C=O)NC(=O)C(CC(C)C)NC(=O)[C@H](CC(C)C)NC(C)=O (some centres not stated) [Calpain Inhibitor II (ALLM)] + CC[C@H](C)C[C@H](C)CCCCCCCCC(=O)N[C@H]1C[C@@H](O)[C@@H](NCCN)NC(=O)[C@@H]2[C@@H](O)CCN2C(=O)[C@H]([C@H](O)CCN)NC(=O)[C@H]([C@H](O)[C@@H](O)c2ccc(O)cc2)NC(=O)[C@@H]2C[C@@H](O)CN2C(=O)[C@H]([C@@H](C)O)NC1=O [caspofungin] (first compound 12.5 µM)", "Candida albicans SNY425 biofilm", 0.178],
  ["CCCC[C@@H](C=O)NC(=O)[C@H](CC(C)C)NC(=O)OCc1ccccc1 [Calpeptin] + C[C@@H]1[C@H](O)[C@@H](C)/C=C/C=C/C=C/C=C/C=C/C=C/C=C/[C@H](O[C@@H]2O[C@H](C)[C@@H](O)[C@H](N)[C@@H]2O)C[C@@H]2O[C@](O)(C[C@@H](O)C[C@@H](O)[C@H](O)CC[C@@H](O)C[C@@H](O)CC(=O)O[C@H]1C)C[C@H](O)[C@H]2C(=O)O [amphotericin B] (first compound 12.5 µM)", "Candida albicans SNY425 biofilm", 0.189],
  ["CC(NC(=O)C(Cc1ccccc1)NC(=O)OCc1ccccc1)C(=O)CF (configuration not stated) + OC(Cn1cncn1)(Cn1cncn1)c1ccc(F)cc1F [fluconazole] (first compound 12.5 µM)", "Candida albicans SNY425 biofilm", 0.119]
]}
